A collection of compounds and their measured IC50
Test system: 439559-082-T-J2-PDC complex spheroid growth;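 further: spheroids exposed to agents for 7 days starting day 3 after seeding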
Assay Overview: Anticancer human tumor 439559-082-T-J2-PDC patient-derived colon adenocarcinoma cell line growth inhibition [Asc]
Test Settings: curve of first compound; second compound 0.1 µM

Example cases with answers are listed next.
Compound: Cn1ncnc1[C@H]1c2n[nH]c(=O)c3cc(F)cc(c23)N[C@@H]1c1ccc(F)cc1 + CNC(C)C(=O)NC1CN(S(=O)(=O)c2cccc(S(=O)(=O)N3CCC4CCC(C(=O)NC(c5ccccc5)c5ccccc5)N4C(=O)C(NC(=O)C(C)NC)C3)c2)CCC2CCC(C(=O)NC(c3ccccc3)c3ccccc3)N2C1=O
Study System: 439559-082-T-J2-PDC complex spheroid growth;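 further: spheroids exposed to agents for 7 days starting day 3 after seeding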
Observed Result: > 0.1 µM
--
Compound: NC1CCC(NC2CC2c2ccccc2)CC1 (stereo not drawn) + Cc1c(S(C)(=O)=O)c(-c2cc(F)cc(N3CCN(c4ccc(NS(=O)(=O)c5ccc(NC(CCN6CCC(C(=O)OCCCP(=O)(O)O)CC6)CSc6ccccc6)c(S(=O)(=O)C(F)(F)F)c5)cc4)CC3)c2)c(-c2ccc(Cl)cc2)n1C(C)C
Study System: 439559-082-T-J2-PDC complex spheroid growth;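 further: spheroids exposed to agents for 7 days starting day 3 after seeding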
Observed Result: > 0.1 µM

For reference, reported IC50 for C#Cc1c(F)ccc2cc(O)cc(-c3ncc4c(N5CC6CCC(C5)N6)nc(OCC56CCCN5CC(F)C6)nc4c3F)c12 (stereo not drawn) + Cc1c(S(C)(=O)=O)c(-c2cc(F)cc(N3CCN(c4ccc(NS(=O)(=O)c5ccc(NC(CCN6CCC(C(=O)OCCCP(=O)(O)O)CC6)CSc6ccccc6)c(S(=O)(=O)C(F)(F)F)c5)cc4)CC3)c2)c(-c2ccc(Cl)cc2)n1C(C)C stands at 0.833 µM

Taken from PubChem BioAssay AID1963423.
